The measured values listed here are drawn from patent US8658604B2.

measured-on: Elastase from human neutrophils (Homo sapiens)
Sequence (P08246 30-267): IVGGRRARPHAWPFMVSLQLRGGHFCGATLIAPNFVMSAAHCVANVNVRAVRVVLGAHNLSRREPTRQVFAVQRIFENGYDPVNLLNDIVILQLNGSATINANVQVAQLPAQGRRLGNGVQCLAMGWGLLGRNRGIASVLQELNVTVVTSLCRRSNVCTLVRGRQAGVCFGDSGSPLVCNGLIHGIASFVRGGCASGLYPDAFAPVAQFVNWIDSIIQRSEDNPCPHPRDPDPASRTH
test-details: Enzymatic assay, elastase
details: Elastase IC50
Where a SMILES comes first, the peptide text is derived from it.
So I've got a bunch of molecules here, and I need their IC50 values.
Response body: numeric value in nM, unit text excluded.

*Q* Any idea what its IC50 is? The molecule is CCCC[C@@H]1NC(=O)[C@@H]2CCCN2C(=O)[C@H]2CCCN2C(=O)[C@H](Cc2ccc(O)cc2)NC(=O)[C@@H]2CSSC[C@H](NC1=O)C(=O)N[C@@H]([C@@H](C)O)C(=O)N[C@@H](C)C(=O)N[C@@H](CO)C(=O)N[C@@H](CCC(C)C)C(=O)N1CCC[C@H]1C(=O)N1CCC[C@H]1C(=O)N[C@@H](CCC(N)=O)C(=O)N2 [Ex. 83] (HELM PEPTIDE1{[Nle].C.T.A.S.[CC(C)CC[C@H](N[*:1])C(=O)[*:2]].P.P.Q.C.Y.[dP].P}$PEPTIDE1,PEPTIDE1,2:R3-10:R3|PEPTIDE1,PEPTIDE1,1:R1-13:R2$$$V2.0)
*A* 43

*Q* Any idea what its IC50 is? The molecule is CCCC[C@@H]1NC(=O)[C@@H]2CCCN2C(=O)[C@H]2CCCN2C(=O)[C@H](Cc2ccc(O)cc2)NC(=O)[C@H](CO)NC(=O)[C@H](CCC(N)=O)NC(=O)[C@@H]2CCCN2C(=O)[C@@H]2CCCN2C(=O)[C@H]([C@@H](C)CC)NC(=O)[C@H](CO)NC(=O)[C@H](C)NC(=O)[C@H]([C@@H](C)O)NC(=O)[C@H](CCC(N)=O)NC1=O [Ex. 111] (HELM PEPTIDE1{[Nle].Q.T.A.S.I.P.P.Q.S.Y.[dP].P}$PEPTIDE1,PEPTIDE1,1:R1-13:R2$$$V2.0)
*A* 46

*Q* Any idea what its IC50 is? The molecule is CC[C@H](C)[C@@H]1NC(=O)[C@H](CO)NC(=O)[C@H](C)NC(=O)[C@H]([C@@H](C)O)NC(=O)[C@@H]2CSSC[C@H](NC(=O)[C@H](CCC(N)=O)NC(=O)[C@@H]3CCCN3C(=O)[C@@H]3CCCN3C1=O)C(=O)N[C@@H](Cc1ccc(O)cc1)C(=O)N1CCC[C@@H]1C(=O)N1CCC[C@H]1C(=O)N[C@@H](C1CCCCC1)C(=O)N2 [Ex. 101] (HELM PEPTIDE1{[O=C([C@@H](N[*:1])C1CCCCC1)[*:2]].C.T.A.S.I.P.P.Q.C.Y.[dP].P}$PEPTIDE1,PEPTIDE1,2:R3-10:R3|PEPTIDE1,PEPTIDE1,1:R1-13:R2$$$V2.0)
*A* 49
